assay: chemical genetic growth profiling, strain panel (AID 1159580);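 further: tested at 20 µM; growth read once vehicle control cultures reached saturation at 30 °C; 1 = growth at the plate median or of vehicle wells; lower values mean less growth of the strain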; details: S. cerevisiae deletion strains, growth OD, locus YPL241C, strain CIN2
Screen size: about 5,500 compounds; about 2,000 (36%) were called active. About 18% were inconclusive and are not listed. No stated cut-off is given here; in the data, active means normalized growth mostly below about 0.91 (no sharp cut-off); inconclusive means no clear call, values can overlap the other calls; inactive means mostly above about 0.92. Some of the results follow.
Your answer must be one of the following: active, inactive

Would you please look over these solved cases?
| COMPOUND | DISCRETE_LABEL |
| --- | --- |
| OCCN1C[C@@H](O)[C@@H](O)C(O)C1CO (stereo not given in full) | inactive |
| COc1ccc(OC)c(S(=O)(=O)Nc2ccc(C#N)cc2)c1 | inactive |
| S=c1nc[nH]c2nc[nH]c12 | inactive |
| COC1=CC(=O)C[C@@H](C)[C@]12Oc1c(Cl)c(OC)cc(OC)c1C2=O | inactive |
| CC1CC2C3CC(F)C4=CC(=O)C=CC4(C)C3(F)C(O)CC2(C)C1(O)C(=O)CO (stereo not given) | inactive |

Data request: Please indicate how the test categorized "C[C@]12CCC(=O)C=C1CC[C@@H]1[C@@H]2CC[C@]2(C)C(=O)CC[C@@H]12" .
Data returned: inactive

Data request: Recorded test call requested for "c1ccc(N=Nc2ccc(Nc3ccccc3)cc2)cc1"
Data returned: active

Data request: Which outcome was entered for the compound "O=c1onc2cnc3ccccc3n12" in this test?
Data returned: inactive

Data request: What classification did "COc1cc(NS(=O)(=O)c2ccc(N)cc2)nc(OC)n1" end up with in this test?
Data returned: inactive

###

experiment: chemical genetic growth profiling, strain panel (AID 1159580);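 further: tested at 20 µM; growth read once vehicle control cultures reached saturation at 30 °C; 1 = growth at the plate median or of vehicle wells; lower values mean less growth of the strain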; settings: S. cerevisiae deletion strains, growth OD, locus YNL153C, strain GIM3, hits give low values
Screen size: about 5,500 compounds; about 2,000 (36%) were called active. Another 18% or so got no clear call; they are omitted. This is one part of the list.
METRIC_NAME: normalized growth
Numbers only.

Would you mind listing normalized growth for each of the following compounds?
1. ClC1=C(Cl)C2(Cl)C3C4C=CC(C4)C3C1(Cl)C2(Cl)Cl (stereo unspecified)
2. C[C@]12CCC(=O)C=C1CCC1C2CC[C@@]2(C)C1CC[C@@H]2O (stereo partly specified)

Data returned:
1.01
1.02

Record normalized growth for all entries; do not skip any.
1. CC(C)(C)C(=O)Nc1ccc(F)cc1
2. COc1cc2c(cc1OC)C1C(=O)c3c(OC)cc4c(c3OC1CO2)CCC(C)(C)O4 (stereo unspecified)
3. NCC1CCC(C(=O)O)CC1 (stereo unspecified)
4. CC(C)(C)c1ccc(NC(=O)Cc2cc(F)cc(F)c2)cc1

Data returned:
0.995
1.03
1.06
0.989

###

test: chemical genetic growth profiling, strain panel (AID 1159580);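 further: tested at 20 µM; growth read once vehicle control cultures reached saturation at 30 °C; 1 = growth at the plate median or of vehicle wells; lower values mean less growth of the strain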; details: S. cerevisiae deletion strains, growth OD, locus YDR137W, strain rgp1, hits give low values
The whole screen tested about 5,500 compounds, of which about 2,000 (36%) were called active. About 18% were inconclusive and are not listed. The list shows a part of the results.
METRIC_NAME: normalized growth

Known normalized growth results, listed for orientation:
| COMPOUND | normalized growth |
| --- | --- |
| ClC1=C(Cl)C2(Cl)C3C4C=CC(C4)C3C1(Cl)C2(Cl)Cl (configuration not stated) | 0.956 (inactive) |
| ClC1=C(Cl)C2(Cl)C3C(Cl)C=CC3C1(Cl)C2(Cl)Cl (configuration not stated) | 0.925 (inactive) |
| COc1cc(O)c(C(=O)/C=C/c2ccccc2)c(OC)c1 | 0.717 (active) |
| CC(=O)OC(C)(C)[C@@H]1Cc2cc3ccc(=O)oc3cc2O1 | 0.992 (inactive) |
| CC(=O)OCC(=O)[C@@]1(O)CCC2C3CCC4=CC(=O)CC[C@]4(C)C3C(=O)C[C@@]21C (some centres not stated) | 1 (inactive) |

Quick one: give me normalized growth for each item below, same order please.
1. NCCSSCCN
2. O=C1C=CC(=C(c2ccc(O)cc2)c2ccc(O)cc2)C=C1
3. COc1cc(/C=C/C(=O)/C=C(O)/C=C/c2ccc(O)c(OC)c2)ccc1O
4. CS(=O)(=O)c1ccc(C2=C(c3ccccc3)C(=O)OC2)cc1
5. CCC(=O)O[C@H]1CCC2C3CCC4=CC(=O)CC[C@]4(C)C3CC[C@@]21C (some centres not stated)
6. CCOC(=O)c1c(C)c(Cl)c(O)c(Cl)c1O
7. CCOC(=O)c1c(C)cc(O)c(C=O)c1O
8. Cc1cc(O)c(C=O)c(O)c1C(=O)O

Data returned:
1: 1.03 (inactive); 2: 0.988 (inactive); 3: 0.149 (active); 4: 1.02 (inactive); 5: 0.689 (active); 6: 0.266 (active); 7: 0.202 (active); 8: 1.01 (inactive)

I'm hoping you can list normalized growth for every compound here, please.
1. CN(C)c1ccc(C(=C2C=CC(=[N+](C)C)C=C2)c2ccc(N(C)C)cc2)cc1
2. C=C1C2CC[C@H]3[C@]4(C)C[C@H](OC5OC(CO)C(OS(=O)(=O)O)C(OS(=O)(=O)O)C5OC(=O)CC(C)C)C[C@@H](C(=O)O)[C@H]4CC[C@]3(C2)[C@H]1O (some centres not stated)
3. COc1ccc2c(C)cc(=O)oc2c1
4. COc1cc(NS(=O)(=O)c2ccc(N)cc2)nc(OC)n1

Data returned:
["0.77 (active)", "1.01 (inactive)", "0.979 (inactive)", "0.984 (inactive)"]
